# method description: in vitro
# condition description: dog
recorded metric: CC50

CC50 lookup needed for COc1ccc([C@H]2c3[nH]c4ccc(Cl)cc4c3CCN2C(=O)Oc2ccc(Cl)cc2)cc1 (racemic) , thanks.
> 1000 nM

----------
# method description: Cytotoxicity (CC50) in PBMCs
# Type: cell-based
# condition description: human, HIV-1 line
recorded metric: CC50 (nM)
Express the result in nM but write the number alone.

CC50 lookup needed for COc1ccc([C@H]2c3[nH]c4ccc(Cl)cc4c3CCN2C(=O)Oc2ccc(Cl)cc2)cc1 (racemic) , thanks.
680

----------
# Test system: HIV-1
# method description: HIV-1 p24 ELISA assay in PBMCs
# Format: cell-based
# condition description: Human immunodeficiency virus 1, PBMC, HIV-1, Retro
# Description: The activity against HIV-1 was tested in MT2 cells and PBMCs in cell culture by preventing virus induced cytopathic effect and measuring viral p24 protein in the culture supernatant.
recorded metric: IC50

IC50 lookup needed for COc1ccc([C@H]2c3[nH]c4ccc(Cl)cc4c3CCN2C(=O)Oc2ccc(Cl)cc2)cc1 (racemic) , thanks.
> 1000 nM
